Counter-ions that a name gives are not always drawn.
Quick reference for melting point among some molecules
Supply the numeric figure in °C, leaving out any unit text.

{"MOLECULE": "CCc1nn(CCN)c(CC)c1Sc1nnnn1C (as salt: salt) [Example 204]", "melting point, °C": 148}
{"MOLECULE": "CCc1nn(CCN)c(CC)c1Sc1nccc(C(F)(F)F)n1 (as salt: salt) [Example 205]", "melting point, °C": 154}
{"MOLECULE": "CCc1nn(C(C)C(N)=O)c(CC)c1Sc1ccc(F)cc1 (stereo not drawn) (as salt: hydrochloride)", "melting point, °C": 167}
{"MOLECULE": "CCc1nn(C(C)CN)c(CC)c1Sc1ccc(F)cc1.O=C(O)/C=C\\C(=O)O (stereo not drawn)", "melting point, °C": 162}

Now for a further molecule.
Input: Fill in reported melting point for this entry: `CCc1nn(C[C@H](C)N)c(CC)c1S(=O)(=O)c1ccc(N2CCCC(C)(C)C2=O)cc1.Cl`
Output: 131
